Assay: chemical genetic growth profiling, strain panel (AID 1159580);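 further: tested at 20 µM; growth read once vehicle control cultures reached saturation at 30 °C; lower values mean less growth of the strain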
Settings: S. cerevisiae deletion strains, growth OD, locus YLR262C, strain YPT6
In all, about 5,500 compounds went through this assay and about 2,000 (36%) were called active. About 18% were inconclusive and are not listed. No stated cut-off is given here; in the data, active means normalized growth mostly below about 0.91 (no sharp cut-off); inconclusive means no clear call, values can overlap the other calls; inactive means mostly above about 0.92. The list shows a part of the results.
Outcomes: active, inactive

molecule	category_label
Cc1cc(OC(=O)c2c(C)cc(O)cc2O)cc(O)c1C(=O)O	inactive
CCC(c1ccc(O)cc1)C(CC)c1ccc(O)cc1 (stereo not drawn)	active
COc1ccc2c3c1OC1C(O)CC=C4C(C2)N(C)CCC431 (stereo not drawn)	inactive
CC12CCC3c4ccc(OC(=O)c5ccccc5)cc4CCC3C1CCC2O (stereo not drawn)	active
CC(C)(O)[C@@H]1Cc2cc3ccc(=O)oc3cc2O1	inactive
OC1(C(F)(F)F)CC(c2ccc3ccccc3c2)=NN1 (stereo not drawn)	active
CC1(C)C2CC(=O)[C@]3(C)C(CC[C@@]4(C)[C@H](c5ccoc5)OC(=O)[C@H]5O[C@]543)[C@@]2(C)C(=O)C[C@H]1O (stereo partly drawn)	inactive
COc1ccc(CCNc2ccc(C(F)(F)F)cc2N)cc1OC	inactive

meta.source: PubChem BioAssay AID1159580
